The reported measurements were obtained from patent US20240109974A1.

Molecular target: T1, human TNFR2 (Novoprotein, Cat #C830) (human, UniProt P20333 23-257, limits assumed)
T1 construct: construct not described; also called human TNFR2 protein
T1 sequence (looked up): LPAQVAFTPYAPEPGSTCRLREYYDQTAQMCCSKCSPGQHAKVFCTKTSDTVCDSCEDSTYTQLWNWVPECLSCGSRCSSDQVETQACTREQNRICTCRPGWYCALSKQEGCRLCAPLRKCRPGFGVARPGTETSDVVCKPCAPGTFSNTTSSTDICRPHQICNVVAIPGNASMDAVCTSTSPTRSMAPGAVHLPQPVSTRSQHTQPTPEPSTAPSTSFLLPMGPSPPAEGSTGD
Assay: competition ELISA, human TNFR2 coated, competitor human TNFα-Biotin
Consider the following binders; for each one, report its IC50.
Please give a number only; it is taken to be in µg/mL.

Task item: Returns the measured IC50 for the input binder. Input: 224-Hu1 (antibody, V domains shown, Humanized form of #224; also called VH8 + VL6) VH: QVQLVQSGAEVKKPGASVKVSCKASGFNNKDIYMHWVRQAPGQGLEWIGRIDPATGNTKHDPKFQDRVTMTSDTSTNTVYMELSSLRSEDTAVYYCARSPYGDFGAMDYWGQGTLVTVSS VL: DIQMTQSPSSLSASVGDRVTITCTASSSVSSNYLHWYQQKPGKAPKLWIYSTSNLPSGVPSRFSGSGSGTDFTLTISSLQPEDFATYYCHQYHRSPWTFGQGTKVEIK
Reply: 0.441

Task item: // query IC50 value for entry 219-Hu1 (antibody, V domains shown, also called VH3 + VL5) VH: QVQLVQSGAEVKKPGASVKVSCKASGYSFTNYWMNWVRQAPGQRLEWMGMIHPSDTETRLNQNFKDRVTITRDTSASTAYMELSSLRSEDTAVYYCARGEGLGAARSVSMDYWGQGTLVTVSS VL: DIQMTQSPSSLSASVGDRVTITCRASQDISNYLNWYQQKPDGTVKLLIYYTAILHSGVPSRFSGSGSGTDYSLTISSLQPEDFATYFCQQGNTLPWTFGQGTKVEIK
Reply: 0.49

Task item: Need IC50, item 001-Hu4 (antibody, V domains shown, Humanized form of #001; also called VH2 + VL4) VH: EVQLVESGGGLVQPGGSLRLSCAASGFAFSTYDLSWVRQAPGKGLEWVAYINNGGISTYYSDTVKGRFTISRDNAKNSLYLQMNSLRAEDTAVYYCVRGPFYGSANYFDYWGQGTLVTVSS VL: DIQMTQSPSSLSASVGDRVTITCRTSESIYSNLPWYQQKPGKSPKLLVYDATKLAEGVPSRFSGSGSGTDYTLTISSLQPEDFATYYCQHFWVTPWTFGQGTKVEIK
Reply: 0.59
